Provenance of the data: patent US5110831A

Target: RBL-1 5-Lipoxygenase (Rattus norvegicus, UniProt P12527)
Construct: supernatant from homogenized RBL-1 cells; endogenous in cells
Sequence (P12527 1-673): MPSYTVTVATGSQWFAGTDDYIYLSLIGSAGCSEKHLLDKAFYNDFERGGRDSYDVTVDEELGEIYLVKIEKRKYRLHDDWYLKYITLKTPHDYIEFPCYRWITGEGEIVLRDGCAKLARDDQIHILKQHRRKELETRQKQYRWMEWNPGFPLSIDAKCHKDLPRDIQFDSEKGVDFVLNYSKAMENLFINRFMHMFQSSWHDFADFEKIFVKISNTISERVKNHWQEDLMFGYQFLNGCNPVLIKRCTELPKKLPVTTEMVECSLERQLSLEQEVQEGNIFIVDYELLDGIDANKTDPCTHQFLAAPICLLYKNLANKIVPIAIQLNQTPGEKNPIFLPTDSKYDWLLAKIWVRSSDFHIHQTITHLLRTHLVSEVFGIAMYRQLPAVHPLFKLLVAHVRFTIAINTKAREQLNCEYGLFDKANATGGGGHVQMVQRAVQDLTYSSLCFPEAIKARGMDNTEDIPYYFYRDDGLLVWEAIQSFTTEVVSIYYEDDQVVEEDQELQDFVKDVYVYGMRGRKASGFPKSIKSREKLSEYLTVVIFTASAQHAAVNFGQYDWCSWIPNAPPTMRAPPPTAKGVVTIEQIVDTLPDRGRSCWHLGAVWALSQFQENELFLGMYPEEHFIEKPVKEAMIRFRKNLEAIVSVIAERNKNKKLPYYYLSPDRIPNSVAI
Test: RBL-1 5-lipoxygenase assay (10,000×g supernatant from homogenized RBL-1 cells, [14C] arachidonic acid)
Details: pH 7.0, 37° C., 5 min preincubation, 0.042 mM arachidonic acid; linear regression on three concentrations
pIC50: −log10 of the molar value.
Returns one of 1 or -1; 1 when pIC50 is >= 6.

molecule	system	assigned-class
O=C(C=CN(O)C1CCCCC1)c1ccc2ccccc2c1	RBL-1 5-Lipoxygenase (Rattus norvegicus, UniProt P12527)	-1
CC(=O)C=CN(O)Cc1ccc(OCc2ccccc2)cc1	RBL-1 5-Lipoxygenase (Rattus norvegicus, UniProt P12527)	-1
CN(O)C=CC(=O)c1ccc(OCc2ccccc2)cc1	RBL-1 5-Lipoxygenase (Rattus norvegicus, UniProt P12527)	-1
CN(O)C=CC(=O)c1cc2ccccc2s1	RBL-1 5-Lipoxygenase (Rattus norvegicus, UniProt P12527)	1
O=C(C=CN(O)Cc1ccccc1)c1ccc(Cl)cc1	RBL-1 5-Lipoxygenase (Rattus norvegicus, UniProt P12527)	1
CC(c1ccc2ccccc2c1)N(O)C=CC(=O)c1ccc2ccccc2c1 (stereo not shown)	RBL-1 5-Lipoxygenase (Rattus norvegicus, UniProt P12527)	-1
O=C(C=CN(O)Cc1ccc(OCc2ccccc2)cc1)C1CC1	RBL-1 5-Lipoxygenase (Rattus norvegicus, UniProt P12527)	-1
O=C(C=CN(O)Cc1ccccc1)c1ccc2ccccc2c1	RBL-1 5-Lipoxygenase (Rattus norvegicus, UniProt P12527)	-1
